System: RXF 393 renal
test-name: NCI-60 one-dose screen, 48 h
run-parameters: 10 µM unless noted
This is part of a sample that, as a whole, favours compounds with a hit. Of some 83,000 tested, about 20% had one in any assay. Active and inactive are the calls of the source. How the source made its calls: active means growth percent below 10; inactive means the rest.
Write down the outcome that applies. Available outcomes: active, inactive

Please review the following examples before continuing.
compound | system-under-test | class-label
COc1cc(C(=O)N/N=C/c2cc3cc(OCc4ccccc4)ccc3nc2OC)cc(OC)c1OC | RXF 393 renal | inactive
NCCOc1ncccc1/C=C1\c2ccccc2-c2ccc(C(F)F)cc21 | RXF 393 renal | inactive
c1ccc(CO[C@H]2CO[C@H]3[C@@H]2OC[C@@H]3Oc2ccc(Nc3ncnc4ccsc34)cc2)cc1 | RXF 393 renal | inactive
COc1cccc(/C=C2\C=C(c3ccccc3)N(Cc3ccccc3)C2=O)c1 | RXF 393 renal | inactive
CCOC(=O)C1=C(N)Oc2c(sc3c(C)cccc23)C1c1ccc(F)cc1 (stereo not drawn) | RXF 393 renal | active
O=C(Nc1ccc(OS(=O)(=O)c2ccc(F)cc2)cc1)c1ccc(Cl)cc1 | RXF 393 renal | inactive

Asked: What is the recorded call for this compound in the test? COc1ccc(OC)c(/C=C/c2nnc(Nc3ccccc3)o2)c1
Given back: inactive

Asked: Further, for CC(=O)N1CCN(c2ccc(OCC3CO[C@](Cn4ccnc4)(c4ccc(Cl)cc4Cl)O3)cc2)CC1 (stereo partly drawn) ?
Given back: inactive

Asked: Further, for Oc1ccc(CCl)c2cccnc12 ?
Given back: inactive

Asked: Further, for O=C(CCN1C(=O)/C(=C/c2ccc(O)cc2)SC1=S)Nc1ccc(Cl)cc1 ?
Given back: inactive

Asked: Further, for Cc1ccc(C(CC(=O)O)c2c(C)[nH][nH]c2=O)cc1 (stereo not drawn) ?
Given back: inactive

Asked: Further, for O=C1c2cccc3cccc(c23)C(=O)N1Nc1nc(N2CCOCC2)nc(N2CCN(c3ccccc3)CC2)n1 ?
Given back: inactive

Asked: Further, for C=C(C)C1CCC2(C)OC2C1 (stereo not drawn) ?
Given back: inactive

Asked: Further, for CCOC(=O)c1sc2ncc(-c3ccc(C)cc3)n2c1C ?
Given back: inactive

Asked: Further, for N#Cc1c(-c2ccc(Cl)cc2)nc(NCCO)[nH]c1=O ?
Given back: inactive

Asked: Further, for CCN(CC)Cc1cc(Nc2c3ccc(Cl)cc3nc3ccc(OC)cc23)ccc1O ?
Given back: active

Asked: Further, for CSc1ncccc1C(=O)OCC(=O)Nc1oc(C)c2c(C)n[nH]c(=O)c12 ?
Given back: inactive

Asked: Further, for NCCOc1ncccc1/C=C1\C2C=CC=CC2C2C=CC(F)=CC12 (stereo not drawn) ?
Given back: inactive

---

System: HCT-116 colon
test-name: NCI-60 one-dose screen, 48 h (100 = growth as untreated, 0 = no growth, -100 = all killed)
run-parameters: 10 µM unless noted
Compounds without any hit were thinned out: in the full panel of roughly 83,000, 20% have a hit.
property-name: growth (%)
Express the result in % but write the number alone.

Example entries begin here.
compound | system-under-test | value-unit | growth
O=C(N=c1oc2ccccc2cc1-c1cc2ccccc2[nH]1)Nc1ccc(Cl)cc1 | HCT-116 colon | % | 89.2
CCN(CC)CCNc1nc2ccccc2c2c(=O)c3cc(Cl)ccc3sc12 | HCT-116 colon | % | 20.5
CCOC(=O)C1=C(N)Oc2c(sc3c(C)cccc23)C1c1ccc(F)cc1 (stereo not given) | HCT-116 colon | % | 9.01

Asked: Report growth for CCN1C(=O)N(CC)C2Nn3c(s/c(=C\c4ccc([N+](=O)[O-])cc4)c3=O)=NC21 (stereo not given) please.
Given back: 18.2

Asked: Further, for O=C(CS(=O)c1oc(-c2cccs2)nc1S(=O)(=O)c1ccc(Br)cc1)c1ccccc1 (stereo not given) ?
Given back: 86.2
